target: bovine lens aldose reductase (Bos taurus); construct: in the preparation of the enzyme from bovine lens; from tissue; host or cells: bovine lens; assay: In vitro Inhibition of Aldose Reductase in the Bovine Lens; type: biochemical; conditions: 10^-5 M; DL-glyceraldehyde as substrate
Listing of entries alongside the reported inhibition at 10 µM.

{"molecule": "COC(=O)NC(=O)CC1=C(Cc2ccc3c(Br)cccc3c2)C(=O)CCC1 [Example 5]", "inhibition at 10 µM": "27%"}
{"molecule": "COc1ccc2c(CC3=C(CC(=O)O)CCC3=O)cccc2c1C(F)(F)F [Example 14]", "inhibition at 10 µM": "84%"}
{"molecule": "COC(=O)NC(=O)CC1=C(Cc2ccc3c(Cl)cccc3c2)C(=O)CC1 [Example 6]", "inhibition at 10 µM": "19%"}
{"molecule": "COc1ccc2c(CC3=C(CC(=O)O)CCCC3=O)cccc2c1C(F)(F)F [Example 13]", "inhibition at 10 µM": "51%"}

###

molecular target: bovine lens aldose reductase (Bos taurus, UniProt P16116); construct: in the preparation of the enzyme from bovine lens; from tissue; host or cells: bovine lens; assay: In vitro Inhibition of Aldose Reductase in the Bovine Lens; type: biochemical; conditions: 4 × 10^-8 M; DL-glyceraldehyde as substrate
Assign class by inhibition at 0.04 µM: not lower than 80% means true; lower than 80% means false.

{"compound": "O=C(O)CC1=C(Cc2ccc3c(Cl)cccc3c2)C(=O)CC1 [Example 4]", "answer.label": "false"}
{"compound": "O=C(O)COC1=C(Cc2ccc3c(Br)cccc3c2)C(=O)CCC1 [Example 10]", "answer.label": "true"}
{"compound": "O=C(O)COC1=C(Cc2ccc3c(Cl)cccc3c2)C(=O)CC1 [Example 11]", "answer.label": "false"}

###

biological target: bovine lens aldose reductase (Bos taurus); construct: in the preparation of the enzyme from bovine lens; from tissue; host or cells: bovine lens; assay: In vitro Inhibition of Aldose Reductase in the Bovine Lens; format: biochemical; settings: 4 × 10^-8 M; DL-glyceraldehyde as substrate
experimental.readout: inhibition at 0.04 µM (%)

{"compound": "O=C(O)CC1=C(Cc2ccc3c(Br)cccc3c2)C(=O)CCC1 [Example 1]", "u": "%", "reported.measurement": 78}
{"compound": "O=C(O)CC1=C(Cc2ccc3c(Cl)cccc3c2)C(=O)CCC1 [Example 3]", "u": "%", "reported.measurement": 79}
{"compound": "O=C(O)COC1=C(Cc2ccc3c(Cl)cccc3c2)C(=O)CCC1 [Example 8]", "u": "%", "reported.measurement": 81}
